Test system: microbiota present in the faecal samples
Test: Faecal fermentation, distribution of oligosaccharides (HPAEC-PAD peak areas)
Settings: Example 2 sample, 48 h, Donor B
VALUE KIND: Peak areas

• O=C[C@H](O)[C@@H](O)[C@@H](O)[C@H](O)CO = 0.0
• O=C[C@H](O)[C@@H](O)[C@H](O)[C@H](O)CO = 0.0
• OC[C@H]1O[C@@H](OC[C@H]2OC(O)[C@H](O)[C@@H](O)[C@@H]2O)[C@H](O)[C@@H](O)[C@H]1O (some centres unmarked) = 0.0
• OC[C@H]1O[C@@H](O[C@H]2[C@@H](O)[C@@H](CO)O[C@@H](O[C@H]3[C@H](O)[C@@H](CO)OC(O)[C@@H]3O)[C@@H]2O)[C@H](O)[C@@H](O)[C@H]1O (some centres unmarked) = 0.4
• OC[C@H]1O[C@@H](O[C@H]2[C@H](O)[C@@H](O)C(O)O[C@@H]2CO)[C@H](O)[C@@H](O)[C@H]1O (some centres unmarked) = 0.5

----------
Test system: microbiota present in the faecal samples
Assay: Faecal fermentation, distribution of oligosaccharides (HPAEC-PAD peak areas)
Conditions: Example 2 sample, 6 h, Donor A
Peak areas below 1 gives rule not met; Peak areas at or above it gives rule met.

* OC[C@H]1O[C@@H](O[C@H]2[C@@H](O)[C@@H](CO)O[C@@H](O[C@H]3[C@H](O)[C@@H](CO)OC(O)[C@@H]3O)[C@@H]2O)[C@H](O)[C@@H](O)[C@H]1O (stereo partly drawn) | rule met
* OC[C@H]1O[C@@H](OC[C@H]2OC(O)[C@H](O)[C@@H](O)[C@@H]2O)[C@H](O)[C@@H](O)[C@H]1O (stereo partly drawn) | rule met
* O=C[C@H](O)[C@@H](O)[C@H](O)[C@H](O)CO | rule met
* OC[C@H]1O[C@@H](O[C@H]2[C@@H](O)[C@@H](CO)O[C@@H](O[C@H]3[C@H](O)[C@@H](O)C(O)O[C@@H]3CO)[C@@H]2O)[C@H](O)[C@@H](O)[C@H]1O (stereo partly drawn) | rule met
* OC[C@H]1O[C@@H](O[C@H]2[C@@H](O)[C@@H](CO)O[C@@H](O[C@H]3C(O)O[C@H](CO)[C@@H](O)[C@@H]3O)[C@@H]2O)[C@H](O)[C@@H](O)[C@H]1O (stereo partly drawn) | rule not met
* O=C[C@H](O)[C@@H](O)[C@@H](O)[C@H](O)CO | rule met
* OC[C@H]1O[C@@H](O[C@H]2[C@@H](O)[C@@H](CO)O[C@@H](O[C@H]3[C@@H](O)[C@@H](CO)O[C@@H](O[C@H]4[C@H](O)[C@@H](O)C(O)O[C@@H]4CO)[C@@H]3O)[C@@H]2O)[C@H](O)[C@@H](O)[C@H]1O (stereo partly drawn) | rule not met
* OC[C@H]1O[C@@H](O[C@H]2[C@H](O)[C@@H](O)C(O)O[C@@H]2CO)[C@H](O)[C@@H](O)[C@H]1O (stereo partly drawn) | rule not met
* OC[C@H]1O[C@@H](O[C@@H]2[C@H](O)[C@@H](O)[C@H](O[C@H]3[C@H](O)[C@@H](O)C(O)O[C@@H]3CO)O[C@@H]2CO)[C@H](O)[C@@H](O)[C@H]1O (stereo partly drawn) | rule met

----------
Test system: microbiota present in the faecal samples
Experiment: Faecal fermentation, distribution of oligosaccharides (HPAEC-PAD peak areas)
Details: Comp. Ex. 1 sample, 6 h, Donor B
Text: HPAEC-PAD (high performance anion exchange chromatography) equipped with a PA-1 column was used for separation of mono- and oligosaccharides of the different samples. […] The samples as used for GPC were 100-fold diluted with DMSO before injection. The distribution of oligosaccharides in the mixtures was also monitored over this time period using the method described above in relation to Table 2.
Peak areas below 2 gives n; Peak areas at or above it gives y.

* OC[C@H]1O[C@@H](O[C@H]2[C@@H](O)[C@@H](CO)O[C@@H](O[C@H]3C(O)O[C@H](CO)[C@@H](O)[C@@H]3O)[C@@H]2O)[C@H](O)[C@@H](O)[C@H]1O (stereo partly drawn) [Cpd. ID 30, D-Gal-(β1-3)-D-Gal-(β1-2)-D-Glu] | n
* OC[C@H]1O[C@@H](O[C@H]2[C@H](O)[C@@H](O)C(O)O[C@@H]2CO)[C@H](O)[C@@H](O)[C@H]1O (stereo partly drawn) [Lactose] | n
* OC[C@H]1O[C@@H](O[C@@H]2[C@H](O)[C@@H](O)[C@H](O[C@H]3[C@H](O)[C@@H](O)C(O)O[C@@H]3CO)O[C@@H]2CO)[C@H](O)[C@@H](O)[C@H]1O (stereo partly drawn) [Cpd. ID 11, D-Gal-(β1-4)-D-Gal-(β1-4)-D-Glu] | y
* O=C[C@H](O)[C@@H](O)[C@H](O)[C@H](O)CO [Glucose] | y
* OC[C@H]1O[C@@H](O[C@H]2[C@@H](O)[C@@H](CO)O[C@@H](O[C@H]3[C@H](O)[C@@H](O)C(O)O[C@@H]3CO)[C@@H]2O)[C@H](O)[C@@H](O)[C@H]1O (stereo partly drawn) [Cpd. ID 12, D-Gal-(β1-3)-D-Gal-(β1-4)-D-Glu] | n
* O=C[C@H](O)[C@@H](O)[C@@H](O)[C@H](O)CO [Galactose] | y
* OC[C@H]1O[C@@H](OC[C@H]2OC(O)[C@H](O)[C@@H](O)[C@@H]2O)[C@H](O)[C@@H](O)[C@H]1O (stereo partly drawn) [Allolactos, Allolactose] | n
* OC[C@H]1O[C@@H](O[C@H]2[C@@H](O)[C@@H](CO)O[C@@H](O[C@H]3[C@@H](O)[C@@H](CO)O[C@@H](O[C@H]4[C@H](O)[C@@H](O)C(O)O[C@@H]4CO)[C@@H]3O)[C@@H]2O)[C@H](O)[C@@H](O)[C@H]1O (stereo partly drawn) [Cpd. ID 31] | n

----------
System: microbiota present in the faecal samples
Assay: Faecal fermentation, distribution of oligosaccharides (HPAEC-PAD peak areas)
Settings: Comp. Ex. 1 sample, 48 h, Donor B
VALUE KIND: Peak areas

- OC[C@H]1O[C@@H](O[C@@H]2[C@H](O)[C@@H](O)[C@H](O[C@H]3[C@H](O)[C@@H](O)C(O)O[C@@H]3CO)O[C@@H]2CO)[C@H](O)[C@@H](O)[C@H]1O (stereo partly drawn) [Cpd. ID 11, D-Gal-(β1-4)-D-Gal-(β1-4)-D-Glu]: 1.9
- OC[C@H]1O[C@@H](O[C@H]2[C@@H](O)[C@@H](CO)O[C@@H](O[C@H]3C(O)O[C@H](CO)[C@@H](O)[C@@H]3O)[C@@H]2O)[C@H](O)[C@@H](O)[C@H]1O (stereo partly drawn) [Cpd. ID 30, D-Gal-(β1-3)-D-Gal-(β1-2)-D-Glu]: 0.6
- OC[C@H]1O[C@@H](OC[C@H]2OC(O)[C@H](O)[C@@H](O)[C@@H]2O)[C@H](O)[C@@H](O)[C@H]1O (stereo partly drawn) [Allolactos, Allolactose]: 0.0

----------
Reported Peak areas values for the following molecules.
Test system: microbiota present in the faecal samples
Assay: Faecal fermentation, distribution of oligosaccharides (HPAEC-PAD peak areas)
Settings: Comp. Ex. 1 sample, 48 h, Donor C
VALUE KIND: Peak areas

- O=C[C@H](O)[C@@H](O)[C@H](O)[C@H](O)CO [Glucose]: 0.0
- OC[C@H]1O[C@@H](O[C@H]2[C@@H](O)[C@@H](CO)O[C@@H](O[C@H]3C(O)O[C@H](CO)[C@@H](O)[C@@H]3O)[C@@H]2O)[C@H](O)[C@@H](O)[C@H]1O (stereo partly drawn) [Cpd. ID 30, D-Gal-(β1-3)-D-Gal-(β1-2)-D-Glu]: 0.0
- OC[C@H]1O[C@@H](O[C@@H]2[C@H](O)[C@@H](O)[C@H](O[C@H]3[C@H](O)[C@@H](O)C(O)O[C@@H]3CO)O[C@@H]2CO)[C@H](O)[C@@H](O)[C@H]1O (stereo partly drawn) [Cpd. ID 11, D-Gal-(β1-4)-D-Gal-(β1-4)-D-Glu]: 0.2

----------
Test system: microbiota present in the faecal samples
Assay: Faecal fermentation, distribution of oligosaccharides (HPAEC-PAD peak areas)
Settings: Example 2 sample, 0 h
Peak areas below 20 gives Not satisfied; Peak areas at or above it gives Satisfied.

* O=C[C@H](O)[C@@H](O)[C@@H](O)[C@H](O)CO [Galactose] | Not satisfied
* O=C[C@H](O)[C@@H](O)[C@H](O)[C@H](O)CO [Glucose] | Not satisfied
* OC[C@H]1O[C@@H](O[C@H]2[C@@H](O)[C@@H](CO)O[C@@H](O[C@H]3[C@H](O)[C@@H](O)C(O)O[C@@H]3CO)[C@@H]2O)[C@H](O)[C@@H](O)[C@H]1O (stereo partly drawn) [Cpd. ID 12, D-Gal-(β1-3)-D-Gal-(β1-4)-D-Glu] | Satisfied
* OC[C@H]1O[C@@H](O[C@H]2[C@H](O)[C@@H](O)C(O)O[C@@H]2CO)[C@H](O)[C@@H](O)[C@H]1O (some centres unmarked) [Lactose] | Satisfied
* OC[C@H]1O[C@@H](O[C@H]2[C@@H](O)[C@@H](CO)O[C@@H](O[C@H]3[C@H](O)[C@@H](CO)OC(O)[C@@H]3O)[C@@H]2O)[C@H](O)[C@@H](O)[C@H]1O (stereo partly drawn) [Cpd. ID 29, D-Gal-(β1-3)-D-Gal-(β1-3)-D-Glu] | Not satisfied
* OC[C@H]1O[C@@H](O[C@H]2[C@@H](O)[C@@H](CO)O[C@@H](O[C@H]3C(O)O[C@H](CO)[C@@H](O)[C@@H]3O)[C@@H]2O)[C@H](O)[C@@H](O)[C@H]1O (stereo partly drawn) [Cpd. ID 30, D-Gal-(β1-3)-D-Gal-(β1-2)-D-Glu] | Not satisfied
* OC[C@H]1O[C@@H](OC[C@H]2OC(O)[C@H](O)[C@@H](O)[C@@H]2O)[C@H](O)[C@@H](O)[C@H]1O (some centres unmarked) [Allolactos, Allolactose] | Satisfied
